- measurement_protocol: NCI Yeast Anticancer Drug Screen. Data for the cln2 rad14 strain (AID 165)
- condition_set: S. cerevisiae cln2 rad14 strain, at 50.0 µM, active compounds read high
- Procedure: Growth inhibition of yeast strains with defined genetic alterations is measured as a screen for potential anti-cancer activity. Selected strains with alterations in DNA damage repair or cell cycle control were exposed to compounds and growth inhibition was measured relative to vehicle treated controls. The strain used in this assay is cln2 rad14
The panel holds about 79,000 compounds, 15% with a hit somewhere; the sample as a whole holds those more often.
Binary classification by growth inhibition, with 20% as an inclusive lower bound for criterion met; all other cases are criterion not met.

CCCOC(=O)CC(CC(=O)OCCC)C(=O)OCCC
criterion not met
COc1cc(O)c(C(C)c2ccccc2)cc1N=NC(N)=O (configuration not stated)
criterion met
O=C1C(=O)N(c2ccc(Cl)cc2Cl)C(=O)C(=O)C1c1nc2ccccc2s1
criterion met
O=C(O)C#Cc1cccc(Cl)c1
criterion not met
C[N+]1(CSC(=O)c2ccccc2)CCCCC1
criterion not met
NNC(=O)CNc1cccc(Br)c1
criterion not met
Ic1ccc(N=Cc2cccs2)cc1
criterion not met
C=C(C)CNC(C)=O
criterion not met

Then there is this compound:
Q: Quick check, growth inhibition >= 20%? O=C(O)/C=C\C(=O)Nc1ccccc1
Result: criterion not met
